- experimental-system: SARS-CoV-2 3CL protease (Severe acute respiratory syndrome coronavirus 2)
- assay-text: biochemical
- test-parameters: 50% SARS-CoV-2 3CL protease inhibitory concentration; RapidFire MS; read-out: IC50
property-label: pIC50
Keep it numeric: pIC50 is minus log10 of the concentration in mol/L.

Solved cases below.
Q: Which pIC50 is listed for Cc1cncc(-n2c(=O)nc(Nc3cc4cn(CC(F)F)nc4cc3Cl)n(Cc3cc(C#N)ccc3C)c2=O)c1 [II-0577] ?
Ans: 8.96

Q: Follow-up entry: Cc1ccc(C#N)cc1Cn1c(Nc2cc3cn(C)nc3cc2Cl)nc(=O)n(-c2cncc(Cl)c2)c1=O [II-0543]
Ans: 8.55

Here's the next entry for you.
Q: Fill blank: measured pIC50 of the molecule N#Cc1cc(Cn2c(Nc3ccc4c(c3)CCO4)nc(=O)n(-c3cncc4ccccc34)c2=O)cc(F)c1F [Compound I-0481] is ____.
Ans: 8.57

====

- Tested on: SARS-CoV-2
- assay-text: microbe, parasite or virus in culture
- Assay type: cell-based
- test-parameters: Severe acute respiratory syndrome coronavirus 2, VeroE6/TMPRSS2, 72 h, 50% SARS-CoV-2 infected cell death inhibitory concentration; VeroE6/TMPRSS2 cells, 3 days culture, CellTiter-Glo 2.0
Rule: EC50 below 900 nM gives Met. Equal to or above 900 nM gives Not met.

Worked examples, 4 molecules total:
Q: Record Cc1cncc(-n2c(=O)nc(Nc3ccc4nn(CC(F)F)cc4c3)n(Cc3ccc(F)c(C#N)c3)c2=O)c1 [Compound I-0355] : is its EC50 strictly below 900 nM?
Ans: Met

Q: Now consider Cc1cncc(-n2c(=O)nc(Nc3cc4cn(C)nc4cc3Cl)n(Cc3cc(C#N)c(F)cc3C)c2=O)c1 [II-0015] .
Ans: Met

Q: Now consider Cc1cncc(-n2c(=O)nc(Nc3cc4cn(CC(F)F)nc4cc3Cl)n(Cc3cc(C#N)ccc3C)c2=O)c1 [II-0577] and answer again.
Ans: Met

Q: Entry to check: O=c1[nH]cccc1Cn1c(=O)nc(Nc2cc3c(cc2Cl)OCC3)n(Cc2cc(F)c(F)c(F)c2)c1=O [Compound I-0239]
Ans: Met

More entries:
Q: Is 900 nM strictly greater than the molecule's reported EC50? molecule: Cc1cncc(-n2c(=O)nc(Nc3cc4cn(C)nc4cc3Cl)n(Cc3cc(C#N)ccc3CF)c2=O)c1 [II-0334]
Ans: Met

Q: Now the same for COc1ccc(Nc2nc(=O)n(Cc3ccc(C)[nH]c3=O)c(=O)n2Cc2cc(F)c(F)c(F)c2)cc1 [Compound I-0358]
Ans: Not met

====

- Test system: SARS-CoV-2
- assay-text: microbe, parasite or virus in culture
- Format: cell-based
- test-parameters: Severe acute respiratory syndrome coronavirus 2, VeroE6/TMPRSS2, 72 h, 50% SARS-CoV-2 infected cell death inhibitory concentration; VeroE6/TMPRSS2 cells, 3 days culture, CellTiter-Glo 2.0
property-label: log10 EC50 (log10 of the value in µM)
Log scale reminder: EC50 in µM, then log10 taken.

Some compounds with known log10 EC50 results, for comparison:
Q: Could you share which log10 EC50 value was measured for CC(C)(Nc1nc(=O)n(Cc2ccc[nH]c2=O)c(=O)n1Cc1cc(F)c(F)c(F)c1)c1ccccc1F [II-0482] ?
Ans: 1.65

Q: // next record CCn1cc2cc(Nc3nc(=O)n(-c4cncc(C)c4)c(=O)n3Cc3cc(Cl)c(F)cn3)c(Cl)cc2n1 [II-0494]
Ans: -0.06

Q: Param item: Cc1cncc(-n2c(=O)nc(N3CC4CCC3CC4)n(Cc3cc(F)c(F)c(F)c3)c2=O)c1 [II-0369]
Ans: 0.06

Q: // next record COc1ccc(Nc2nc(=O)n(-c3cnc4sccn34)c(=O)n2Cc2cc(F)c(F)c(F)c2)cc1 [II-0393]
Ans: 0.78

Q: And the next one, C#Cc1cncc(-n2c(=O)nc(Nc3ccc(OC)cc3)n(Cc3cc(F)c(F)c(F)c3)c2=O)c1 [II-0604] ?
Ans: 0.99

From here, focus on the item given below.
Q: # query: log10 EC50 of entry Cc1ccc(C#N)cc1Cn1c(Nc2cc3cn(C)nc3cc2Cl)nc(=O)n(-c2cncc(Cl)c2)c1=O [II-0543]
Ans: -1.06
